Where do these numbers come from? They come from the RNAGym collection of RNA variant scans (doi:10.1093/molbev/msab373).

B1: Azoarcus group I ribozyme (parent)
chain: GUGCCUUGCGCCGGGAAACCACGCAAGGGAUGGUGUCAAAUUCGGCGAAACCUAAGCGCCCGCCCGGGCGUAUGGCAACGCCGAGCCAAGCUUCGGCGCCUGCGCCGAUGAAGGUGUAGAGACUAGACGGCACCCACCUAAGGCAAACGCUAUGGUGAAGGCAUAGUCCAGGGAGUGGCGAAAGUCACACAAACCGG

variants of: B1; experiment: reverse-splicing fitness (ratio to wild type); higher = more active; in vitro selection; Mg2+ level not given
outcome-measure: reverse-splicing fitness

INSERT INTO measurements (variant_key, outcome_measure, observed_value) VALUES
  ('C82U A111C C150U C169U', 'reverse-splicing fitness', 0.0116),
  ('C82U A120G C150U C169G U176G', 'reverse-splicing fitness', 0.00429),
  ('C82A A111C C150U C169G', 'reverse-splicing fitness', 0.00783),
  ('C82G A111C A120G A145G U176G', 'reverse-splicing fitness', 0.00675),
  ('C82A A111G A120C A145U C169U', 'reverse-splicing fitness', 0.0135),
  ('C82A A120C A145G C150A', 'reverse-splicing fitness', 0.0245),
  ('C82A A111G A120G C150U C169U U176G', 'reverse-splicing fitness', 0.00738),
  ('A111C A145U C150A C169G U176A', 'reverse-splicing fitness', 0.0133),
  ('C82G A111C A120G C150U U176A', 'reverse-splicing fitness', 0.0119),
  ('C82U A120U A145U C150U C169U U176C', 'reverse-splicing fitness', 0.00368),
  ('C82A A111G A120G A145G C150A C169A U176A', 'reverse-splicing fitness', 0.0205),
  ('C82A A111U A120U A145U C150U C169A', 'reverse-splicing fitness', 0.00293),
  ('C82G A120G A145U C150A U176A', 'reverse-splicing fitness', 0.0105),
  ('A111C A145U C150G C169A U176A', 'reverse-splicing fitness', 0.00872),
  ('A111G A120C A145C C150G C169G U176G', 'reverse-splicing fitness', 0.0036),
  ('C82U A111C C150G C169A U176C', 'reverse-splicing fitness', 0.00957),
  ('C82A A111G A145C C169U U176G', 'reverse-splicing fitness', 0.00571),
  ('C82A A111U A120G A145U C150A C169G U176C', 'reverse-splicing fitness', 0.0161),
  ('C82A A111U A120G A145C C150U', 'reverse-splicing fitness', 0.00935),
  ('C82U A111U C169G U176A', 'reverse-splicing fitness', 0.0162),
  ('C82U A111U A120U A145C C169G U176C', 'reverse-splicing fitness', 0.00221),
  ('C82A A111G A145U C169U U176A', 'reverse-splicing fitness', 0.0124);
